FYI, the data here is from patent US20130012466A1.

Test system: mouse mammary normal epithelial control cell line
ASSAY_PROTOCOL: Cytotoxicity assay, normal control cell line
DETAILS: read-out: Cytotoxicity IC50, NmuMG, CTG, CTG (cell titer-glo) readout, % error in parentheses
Label 1.0 when IC50 < 2 µM; otherwise 0.0.

INSERT INTO assay_data (molecule, label_class) VALUES
  ('COc1cc2c(c(OC)c1OC)-c1ccc(OC)c(=O)cc1[C@@H](NC(=O)CN(OC)[C@@H]1O[C@H](CSC(C)=O)[C@H](O)[C@H](O)[C@H]1O)CC2 [Col68, 6-deoxy-6-thio-acyl-D-galactoside]', 0.0),
  ('COc1cc2c(c(OC)c1OC)-c1ccc(OC)c(=O)cc1[C@@H](NC(=O)CN(OC)[C@@H]1OC[C@@H](O)[C@@H](O)[C@H]1O)CC2 [Col5, D-riboside]', 0.0),
  ('COc1cc2c(c(OC)c1OC)-c1ccc(OC)c(=O)cc1[C@@H](NC(=O)CN(OC)[C@@H]1O[C@H](CO)[C@@H](O)[C@H](O)[C@H]1F)CC2 [Col34, 2-fluoro-2-deoxy-D-glucoside]', 1.0),
  ('COc1cc2c(c(OC)c1OC)-c1ccc(OC)c(=O)cc1[C@@H](NC(=O)CN(OC)[C@H]1C[C@@H](O)[C@H](O)[C@@H](CO)O1)CC2 [Col16, 2-deoxy-D-glucoside]', 1.0),
  ('COc1cc2c(c(OC)c1OC)-c1ccc(OC)c(=O)cc1[C@@H](NC(=O)CN(OC)[C@@H]1O[C@H](C)[C@@H](O)[C@H](O)[C@H]1O)CC2 [Col2, 6-deoxy-D-glucoside]', 0.0),
  ('COc1cc2c(c(OC)c1OC)-c1ccc(OC)c(=O)cc1[C@@H](NC(=O)CN(OC)[C@@H]1O[C@H](CCl)[C@H](O)[C@H](O)[C@H]1O)CC2 [Col41, 6-deoxy-6-chloro-D-galactoside]', 0.0),
  ('COc1cc2c(c(OC)c1OC)-c1ccc(OC)c(=O)cc1[C@@H](NC(=O)CN(OC)[C@@H]1O[C@H](CO)[C@@H](N=[N+]=[N-])[C@H](O)[C@H]1O)CC2 [Col44, 4-deoxy-4-azido-D-glucoside]', 1.0),
  ('COc1cc2c(c(OC)c1OC)-c1ccc(OC)c(=O)cc1[C@@H](NC(=O)CN(OC)[C@@H]1O[C@H](C(=O)O)[C@@H](O)[C@H](O)[C@H]1O)CC2 [Col15, D-glucuronoside]', 0.0),
  ('COc1cc2c(c(OC)c1OC)-c1ccc(OC)c(=O)cc1[C@@H](NC(=O)CN(OC)[C@@H]1O[C@H](CN=[N+]=[N-])[C@H](O)[C@H](O)[C@H]1O)CC2 [Col43, 6-deoxy-6-azido-D-galactoside]', 0.0),
  ('COc1cc2c(c(OC)c1OC)-c1ccc(OC)c(=O)cc1C(NC(=O)CN(OC)C1OC(C)C(O)C(O)C1O)CC2 [Col37, L-rhamnoside]', 0.0),
  ('COc1cc2c(c(OC)c1OC)-c1ccc(OC)c(=O)cc1[C@@H](NC(=O)CN(OC)[C@@H]1OC[C@@H](O)[C@H](O)[C@@H]1O)CC2 [Col1, D-lyxoside]', 0.0),
  ('COc1cc2c(c(OC)c1OC)-c1ccc(OC)c(=O)cc1[C@@H](NC(=O)CN(OC)[C@@H]1O[C@H](CO)[C@@H](O)[C@H](F)[C@H]1O)CC2 [Col33, 3-fluoro-3-deoxy-D-glucoside]', 0.0),
  ('COc1cc2c(c(OC)c1OC)-c1ccc(OC)c(=O)cc1[C@@H](NC(=O)CN(OC)[C@@H]1O[C@H](CO)[C@@H](O[C@H]3O[C@H](CO)[C@@H](O[C@H]4O[C@H](CO)[C@@H](O)[C@H](O)[C@H]4O)[C@H](O)[C@H]3O)[C@H](O)[C@H]1O)CC2 [Col13, maltotrioside]', 0.0),
  ('COc1cc2c(c(OC)c1OC)-c1ccc(OC)c(=O)cc1[C@@H](NC(=O)CN(OC)[C@@H]1O[C@H](C(=O)O)[C@H](O)[C@H](O)[C@H]1O)CC2 [Col18, D-Galacturonoside]', 0.0),
  ('COc1cc2c(c(OC)c1OC)-c1ccc(OC)c(=O)cc1[C@@H](NC(=O)CN(OC)[C@@H]1O[C@H](CO)[C@H](O)[C@H](O)[C@H]1NC(C)=O)CC2 [Col28, N-acetyl-D-galactosaminoside]', 0.0),
  ('COc1cc2c(c(OC)c1OC)-c1ccc(OC)c(=O)cc1C(NC(=O)CN(OC)C1CC(O)C(O)C(C)O1)CC2 [Col65, D-Digitoxoside]', 0.0),
  ('COc1cc2c(c(OC)c1OC)-c1ccc(OC)c(=O)cc1[C@@H](NC(=O)CN(OC)[C@@H]1O[C@H](CO)[C@@H](O[C@H]3O[C@H](CO)[C@@H](O)[C@H](O)[C@H]3O)[C@H](O)[C@H]1O)CC2 [Col38, D-maltoside]', 1.0),
  ('COc1cc2c(c(OC)c1OC)-c1ccc(OC)c(=O)cc1[C@@H](NC(=O)CN(OC)[C@@H]1O[C@H](CF)[C@@H](O)[C@H](O)[C@H]1O)CC2 [Col54, 6-deoxy-6-fluoro-D-glucoside]', 0.0),
  ('COc1cc2c(c(OC)c1OC)-c1ccc(OC)c(=O)cc1[C@@H](NC(=O)CN(OC)[C@@H]1OC[C@@H](O)[C@H](O)[C@H]1O)CC2 [Col4, D-xyloside]', 0.0);
